These data points were gathered from the METLIN SMRT retention time set (Domingo-Almenara et al. 2019).

experiment: gradient 5% acetonitrile 3 min, to 50% in 2 min, to 85% in 15 min, held 3 min, 100 µL/min; details: column: Zorbax Extend-C18 2.1 x 50 mm; eluents: water / acetonitrile, 0.1% formic acid
Measured quantity: RP-LC retention time (s)

{"columns": ["Molecule", "RP-LC retention time [s]"],
 "data": [
  ["O=C(C1CCCO1)N1CCC(OCc2nc(-c3ccccc3)no2)CC1 (centres undefined)", 778],
  ["CCOc1cccc2c1OC1(C)CC2NC(=O)N1c1cccc(C(=O)NCc2ccccn2)c1 (centres undefined)", 607],
  ["Cc1cc(C)c(NC(=O)C2CCN(c3c(C(=O)N4CCCCC4)cnc4snc(C)c34)CC2)c(C)c1", 927],
  ["Cc1cc(N2C=C(C(=O)N3CCOCC3)S(=O)(=O)c3ccc(F)cc32)ccc1F", 814]
]}
